System: PRMT1 (protein arginine N-methyltransferase 1)
assaySummary: PRMT1 binders on small-molecule microarrays, primary screen, biochemical, small-molecule microarray, 635 nm fluorescence (AID 1088);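 note: binding of Prmt1 protein to compounds spotted on small-molecule microarray slides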
experimentalConditions: small-molecule microarray binding, higher = more signal
experimentalEndpoint: composite z-score
// keep it numeric: no unit symbol after the value

Some compounds with known composite z-score results, for comparison:
compound | measuredResult
O=C1c2ccccc2[C@@]2(Cc3ccccc3N(C3CC3)C2=O)[C@H](c2ccc(CO)cc2)N1C1CCCCC1 | -0.767
CCOC(=O)C1=CC[C@@H](c2cc(Cl)ccc2Cl)N(S(=O)(=O)c2ccc(C)cc2)[C@H]1c1ccc(OC)cc1 | -0.393
CC(C)C(O)C1C=CC2C(=O)N(C)C(=O)C2N1N(c1ccccc1)c1ccccc1 (centres undefined) | -2.15

We now examine a further compound.
IN: What value of measured composite z-score is listed for "COCCOC(=O)N1C(=O)[C@@]2(c3cc(C#CC4(O)CCCCCC4)ccc31)[C@H](c1ccccc1OCCO)N1[C@H](c3ccccc3)[C@H](c3ccccc3)OC(=O)[C@H]1[C@@H]2C(N)=O" ?
OUT: 1.54

---

assaySummary: binders of probe aFST on microarray, primary screen, stem cell growth factor project, biochemical, small-molecule microarray, fluorescence 635/667 (AID 1086);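 note: score merges 667 nm fluorescence with signal-to-noise of each printed compound spot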
experimentalConditions: higher = more signal
composite z-score below 0.04 gives false (0); composite z-score at or above it gives true (1).

Solved entries (count: 5):
molecule | group
CCOC(=O)C[C@H]1[C@H](OC(=O)c2ccc(-c3ccccc3)cc2)[C@@H](NC(=O)c2ccc3ccccc3c2)c2cc(OCCCO)ccc2N1C(=O)c1ccc2ccccc2n1 | true (1)
CC=CC(O)C1C=CC2C(=O)N(C)C(=O)C2N1Nc1ccc([N+](=O)[O-])cc1[N+](=O)[O-] (configuration not stated) | false (0)
O=C(CS)NCCCCCCNC(=O)[C@@H]1C[C@@H]2C(=O)N3CCC[C@H]3C(=O)N2[C@@H]1c1cccc(OCCO)c1 | false (0)
NCCCCCCNC(=O)[C@H]1C[C@H]2C(=O)N[C@@H](Cc3ccccc3)C(=O)N2[C@H]1c1ccc(O)cc1 | true (1)
C[C@]1(C(=O)NC2CC2)c2ccccc2C(=O)N(Cc2ccc(OC(F)(F)F)cc2)[C@H]1c1ccc(CO)cc1 | false (0)

IN: Confirm if composite z-score reported for the molecule "O=C(N1CCCCC1)[C@@]1(Cc2ccccc2)COC(c2ccc(OCCCO)cc2)=N1" is 0.04 or above.
OUT: true (1)

---

Tested on: Fibrinogen (Alexa647-labelled)
assaySummary: fibrinogen binders on compound microarrays, profiling panel, artefact control for SMM control-protein annotation, biochemical, small-molecule microarray, 635/667 nm fluorescence (AID 1131);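 note: z-score merges 667 nm fluorescence with per-spot signal-to-noise over triplicate slides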
experimentalConditions: fibrinogen-A647 binding fluorescence, higher = more signal
composite z-score values by entry
// keep it numeric: no unit symbol after the value

Some molecules with known composite z-score results, for comparison:
molecule | targetEntity | composite z-score
CC1CC/C=C\[C@H]2OC34C=CCN(c5ccc6ccccc6c5)C(=O)[C@H]3N(C(CO)C(C)C)C(=O)[C@@H]4C2C(=O)O1 (stereo partly specified) | Fibrinogen (Alexa647-labelled) | -1.01
C[C@]1(C(=O)O)c2ccccc2C(=O)N(Cc2ccccc2)[C@H]1c1ccc(CO)cc1 | Fibrinogen (Alexa647-labelled) | -2.48
COC(=O)[C@@]1(Cc2ccc(F)cc2)[C@H]2c3cc(C(=O)N4CCCC4)n(CCF)c3C[C@H]2CN1C(=O)c1ccccc1 | Fibrinogen (Alexa647-labelled) | 0.642
NC(=O)NCC#Cc1ccc2c(c1)[C@]1(C(=O)N2)[C@H](C(=O)Nc2nc3ccccc3s2)[C@H]2C(=O)O[C@H](c3ccccc3)[C@H](c3ccccc3)N2[C@@H]1c1ccc(O)cc1 | Fibrinogen (Alexa647-labelled) | 0.629
CCOC(=O)C[C@H]1[C@H](OC(=O)c2ccccc2-c2ccccc2)[C@@H](NC(=O)c2ccc3ccccc3n2)c2cc(OCCCO)ccc2N1C(=O)c1ccc2ccccc2n1 | Fibrinogen (Alexa647-labelled) | 0.74

IN: What value of measured composite z-score is listed for "C=CCOC(=O)[C@H]1[C@@H]2C(=O)O[C@@H](c3ccccc3)[C@@H](c3ccccc3)N2[C@@H](c2ccc(OCCOC(=O)[C@H]3C[C@H]4C(=O)N[C@@H](CCCC[N+](C)(C)C)C(=O)N4[C@H]3c3cccc(OCCO)c3)cc2)[C@]12C(=O)Nc1ccc(I)cc12" ?
OUT: 0.82
